Source of measurements: ChEMBL document CHEMBL1201862

Give measured GI50 for each item. Keep answers brief.
# System: U-251
# experimental-details: NCI tumour cell line growth inhibition, 48 h
The source made the active and inactive calls. No stated cut-off is given here; in the data, active = GI50 up to about 1.1 µM and inactive = higher.

(Q) Suppose we examine the compound O=C1c2ccccc2C(=O)c2c(NCCCNCCO)ccc(NCCCNCCO)c21 ; what GI50 value has been reported?
(A) 5.36 µM (inactive)

(Q) Do the same for Cc1cccc2c1[C@]13OC(C)[C@]4(C)CC5OC(=O)[C@@]1(C)[C@@H]5[C@]34C(=O)O2 (stereo partly specified) please
(A) > 100 µM (inactive)

(Q) What would you report for c1ccc(C2N=NN(c3ccccc3)C2N2CCCCC2)cc1 (stereo unspecified) ?
(A) 56 µM (inactive)

(Q) Consider next the compound c1cc2[se][se]c3c4cccc5[se][se]c(c(c1)c23)c54 in the same way.
(A) > 100 µM (inactive)

(Q) Also CC(C)=CCC(OC(=O)C=C(C)C)c1cc(O)c2c(c1O)C(=O)C=CC2=O (stereo unspecified) , if possible.
(A) 3.08 µM (inactive)

(Q) Follow-up entry: O=C(c1ccc(Cl)cc1Cl)N(/N=C/C=C/c1ccccc1)c1nnc(-c2ccccc2)c(-c2ccccc2)n1
(A) > 100 µM (inactive)
